Reference source for all entries: patent US11419875B2

# System: MOLM-13 cell line
# ASSAY TEXT: Anti-proliferative activity, MOLM-13 cell line (Example 5, CellTiter Glo)
# Assay type: cell-based
# RUN PARAMETERS: Homo sapiens, Example 5 procedure, 5,000 cells/well
# Protocol: The same procedure was used for both the MV4-11 cells and MOLM-13 cells. Each cell line has an ITD mutation in the FLT-3 kinase. The cells were grown to ˜80% confluence, split in half and grown overnight. The cells were seeded at a density of 5,000 cells/well in a volume of 150 μL into a 96-well black plate in all wells except columns 1 and 12 and rows A and H. They were incubated overnight in 10% serum and HBSS was added to wells on the periphery. […]
REPORTED METRIC: IC50

# COMPOUND, MEASURED
rows = [
    ("Cc1cc(-c2nc(C(=O)Nc3cc4oc(N5CCOCC5)nc4nc3N3CC[C@@H](O)C3)co2)ccn1 [Compound A]", "190 nM"),
]
